# Tested on: UACC-257 melanoma
# METHOD: NCI-60 one-dose screen, 48 h (100 = growth as untreated, 0 = no growth, -100 = all killed)
# DETAILS: 10 µM
The panel holds about 83,000 compounds, 20% with a hit somewhere; the sample as a whole holds those more often.
PARAMETER: growth (%)
Reply with just the number (in %).

The following compounds have reported results that may help.
COc1c(-c2c3sc(=O)[nH]c3nc3c2c(=O)[nH]n3C(C)C)cc2c(c1OC)OCO2 = 99.7
COc1ccc2oc(=O)cc(C(c3ccc[nH]3)c3ccc[nH]3)c2c1 = 32.5
CCc1ccc(-c2nnc(COc3ccc(-c4nc5ccccc5[nH]4)cc3OC)o2)cc1 = 88.7
COc1cc(-c2cc(/C=C/C(C)=O)[nH]n2)cc(OC)c1OC = 79.9
Nc1nc2c(nnn2C2CC(O)C(CO)O2)c(=O)[nH]1 (configuration not stated) = 77.7

Measured growth of N#CCC1CCCC1 : 100

Looking up COc1cc(-c2c(C#N)c(N)n3c(nc4ccccc43)c2C#N)cc(Br)c1OC , I found its growth recorded as 54

Entry NC(=O)c1ccc(Br)o1 ; growth = 114

Record Cc1ccc(C(=O)O)c(N)c1C . Reported growth: 108

Note to self: growth recorded for CC(=O)Nc1nc(C)c(C(=O)NNC=O)s1 was 106

Sure, the documented growth for CC(=O)/C(=C\c1ccc(Cl)cc1)c1ccccc1 is 72.2

So for COc1cc(CSc2nc3ccc(C)cc3c(=O)n2Cc2ccccc2)cc(OC)c1OC , the logged growth turned out to be 47.4

====

# System: DU-145 prostate
# METHOD: NCI-60 one-dose screen, 48 h
# DETAILS: 10 µM
The panel holds about 83,000 compounds, 20% with a hit somewhere; the sample as a whole holds those more often. The source made the active and inactive calls. How the source made its calls: active means growth percent below 10; inactive means the rest.
Bench note: report the call from active, inactive

Example entries and their recorded answers appear below.
C[C@]12CC[C@H]3[C@@H](CC=C4C[C@@H](O)CC[C@@]43C)[C@@H]1CC[C@@H]2C(=O)C/C=N/O = inactive
COc1ccc2c(c1)/C(=C/c1cc(OC)c(OC)c(OC)c1)C(=O)N2C = active
CC1(C)Cc2c(cn(Cc3ccccc3)c2-c2ccccc2)-c2oncc21 = inactive
O=C(CCl)N1c2ccccc2Sc2ccc3ccccc3c21 = active

input: Any idea what this test logged for O=C(COc1ccc(-c2nc3ccccc3[nH]2)cc1)N=Nc1c(O)[nH]c2ccccc12 ?
output: inactive

input: Please indicate how the test categorized CC(=O)OC1Oc2ccccc2-c2oc(=O)c(-c3ccc(F)cc3)cc21 (centres undefined) .
output: inactive

input: What was the test verdict on COc1ccc(/C=C(\c2cc(OC)c(OC)c(OC)c2)c2nnc(-c3cccs3)o2)cc1 ?
output: inactive

input: Tell me the recorded outcome of this test for COc1cc(Cn2c(-c3ccccc3)c(Cl)c3c2-c2oncc2CC3)cc(OC)c1 .
output: inactive

input: In this assay, the call recorded for Cc1ccc(C(=O)O)c(N)c1C was what?
output: inactive

input: Fill in: this test's call for Cc1cc(C)c2nc(C)c(C)[n+]([O-])c2c1 is ___
output: inactive

input: Each compound tested received a call. Report the one for COc1ccc(-c2[nH]ncc2/C=C/c2cc(C(F)(F)F)[nH]c(=O)n2)cc1 .
output: inactive

input: # fetch the recorded call for CCOc1nc(-c2ccccc2)cc2c(O)c(C(=O)NCCCO)[nH]c(=O)c12 here
output: inactive

input: Name the outcome recorded for CC1(C)CNC(=O)N1 in the assay.
output: inactive

input: Short answer needed: outcome of this test for C[C@@H]1C(=O)N(C[C@H](Cc2ccccc2)NC(=O)OCc2ccccc2)[C@]1(Cc1ccccc1)C(=O)OCc1ccccc1 ?
output: inactive

input: Recorded call for O=S(=O)(NC1c2ccccc2Oc2ccccc21)c1ccccc1 ?
output: inactive

input: Assay result, entry CCCCCCCCCCCCCCCCn1cc[n+](C)c1 — outcome?
output: active

input: Can you look up the reported call for C/C(=N/NC(=O)c1sc(=S)n(C)c1N)c1cc2cc(Cl)ccc2o1 for me?
output: inactive

input: Name the outcome recorded for OC(CNC1CCCC1)Cn1c2ccccc2c2ccccc21 (centres undefined) in the assay.
output: inactive

input: Given O=C(CSc1nnc(-c2ccc(Cl)cc2)o1)c1ccccc1 , state the outcome it received in this test.
output: inactive

input: Dear colleague, could you share the recorded outcome for CCOC(=O)C1=C(Nc2ccc(OC)cc2)C(N)=NC1=N when you have a moment?
output: inactive

input: Returns: the outcome recorded for NC(=O)C1CCCN(Cc2c[nH]c3ccccc23)C1 (centres undefined) in this assay.
output: inactive

input: I would be grateful if you could indicate the recorded call for C=CCn1ccc(=O)nc1SC .
output: inactive

input: Per the assay record, what outcome was assigned to COc1ccc(/C=C2\CCC3C(CCCC34OCCO4)C2=O)cc1 (centres undefined) ?
output: inactive

input: Fill in: this test's call for CCCCOCCOCCOCc1cc2c(cc1Br)OCO2 is ___
output: inactive

input: // return assay outcome for CC(=O)OC1Oc2ccccc2-c2oc(=O)c(-c3cc(=O)oc4cc(O)ccc34)cc21 (centres undefined)
output: inactive

input: Returns: the outcome recorded for COc1cc(-c2nc3ccccc3[nH]2)ccc1OCC(=O)N=Nc1c(O)[nH]c2ccccc12 in this assay.
output: inactive

input: Lab log entry: O=C(Cn1ccc(=O)[nH]c1=O)c1ccc([N+](=O)[O-])o1 — outcome as called in the assay?
output: inactive
